TEST METHOD NOTES: Biodistribution of ^111In-labeled peptides in B16-F1 melanoma-bearing mice
Format: in vivo, mouse (B6D2F1)
RECORDED CONDITIONS: female, B6D2F1 (C57BL/6 × DBA/2F1 hybrids), mouse, iv, 185 kBq, total radioactivity; 48 h postinjection; mean tumor uptake divided by mean kidney uptake
Non-standard residues stand in square brackets, D forms with d. Residues, ends and D or L forms follow the SMILES beside them. *: point of attachment. DOTA = O=C(O)CN1CCN(CC(=O)O)CCN(CC(=O)*)CCN(CC(=O)O)CC1; pY = N[C@@H](Cc1ccc(OP(=O)(O)O)cc1)C(=O)O; Nle = CCCC[C@H](N)C(=O)O
Kindly state tissue to tissue ratio at 48 h for each of the entries shown.

Ask: Returns the measured tissue to tissue ratio at 48 h for the input compound. Input: CCCC[C@H](NC(=O)[C@H](Cc1ccc(OP(=O)(O)O)cc1)NC(=O)CNC(=O)CN1CCN(CC(=O)O)CCN(CC(=O)O)CCN(CC(=O)O)CC1)C(=O)N[C@@H](CC(=O)O)C(=O)N[C@@H](Cc1c[nH]cn1)C(=O)N[C@H](Cc1ccccc1)C(=O)N[C@@H](CCCNC(=N)N)C(=O)N[C@@H](Cc1c[nH]c2ccccc12)C(N)=O [[^111In]DOTA-Phospho-MSH2-9, metal not drawn] ({DOTA}-G[pY][Nle]DH[dF]RW-NH2)
Result: 1.16

Ask: Ok, now CCCC[C@H](NC(C)=O)C(=O)N[C@@H](CC(=O)O)C(=O)N[C@@H](Cc1c[nH]cn1)C(=O)N[C@H](Cc1ccccc1)C(=O)N[C@@H](CCCNC(=N)N)C(=O)N[C@@H](Cc1c[nH]c2ccccc12)C(=O)NCC(=O)N[C@@H](CCCCNC(=O)CN1CCN(CC(=O)O)CCN(CC(=O)O)CCN(CC(=O)O)CC1)C(=O)N[C@H](CC(=O)O)C(=O)N[C@H](CC(=O)O)C(=O)O [[^111In]DOTA-NAP-D-Asp-D-Asp, metal not drawn] (Ac-[Nle]DH[dF]RWGK(DOTA)[dD][dD]-OH; N-terminus and C-terminus assumed)
Result: 0.11

Ask: Could you do the same for CCCC[C@H](NC(C)=O)C(=O)N[C@@H](CC(=O)O)C(=O)N[C@@H](Cc1c[nH]cn1)C(=O)N[C@H](Cc1ccccc1)C(=O)N[C@@H](CCCNC(=N)N)C(=O)N[C@@H](Cc1c[nH]c2ccccc12)C(=O)NCC(=O)N[C@@H](CCCCNC(=O)CN1CCN(CC(=O)O)CCN(CC(=O)O)CCN(CC(=O)O)CC1)C(N)=O [[^111In]DOTA-NAP-amide, metal not drawn, reference compound] , please?
Result: 0.91
